Dear all, this message contains MIC results, target or system Enterococcus faecalis NCTC 12201 (DRCC 153, R).
Express your answer in µg/mL, writing the number without its unit.

Worked examples, 3 compounds total:
[[record]]
structure_smiles_string = "COC(=S)NCc1cn(-c2cc(F)c(-n3ccc(C#N)c3)c(F)c2)nn1"
experimental_result = 0.5

[[record]]
structure_smiles_string = "COC(=S)NCc1cn(-c2ccc(-n3cncn3)c(F)c2)nn1"
experimental_result = 32

[[record]]
structure_smiles_string = "COC(=S)NCc1cn(-c2cc(F)c(-n3ccnc3)c(F)c2)nn1"
experimental_result = 1


I'd like to know its MIC. The compound in question is `COC(=S)NCc1cn(-c2ccc(-n3cnc(CO)c3)c(F)c2)nn1` 1

Reference source for all entries: patent US20060270628A1
